# protein stability index per entry
B1: KLHL12 (parent)
chain: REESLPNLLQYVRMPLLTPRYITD

Variants of: B1
Test: protein stability index of a GFP-peptide fusion (GPS, HEK-293T) (PSI 1-6); higher = more stable;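 further: lentivirally expressed fusions sorted by FACS into six bins by GFP to DsRed ratio, PSI derived from sequencing read proportions per bin multiplied by bin number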
Settings: c terminus: a fixed tail appended
reported.endpoint: protein stability index

1. REESLPNLLQYVRMPLLTPRYITR [D24R] :: 2.75
2. REESLPNLLQYQRMPLLTPRYITD [V12Q] :: 3.07
3. REHSLPNLLQYVRMPLLTPRYITD [E3H] :: 2.23
4. REESLPNLLQYVRMPLLTPKYITD [R20K] :: 3.48
5. REEYLPNLLQYVRMPLLTPRYITD [S4Y] :: 2.45
6. REESLPNLLQYVRMPVLTPRYITD [L16V] :: 3.03
7. REESLPNLLQYVRDPLLTPRYITD [M14D] :: 3.17
8. REECLPNLLQYVRMPLLTPRYITD [S4C] :: 2.71
9. REESLPNMLQYVRMPLLTPRYITD [L8M] :: 2.69
10. REISLPNLLQYVRMPLLTPRYITD [E3I] :: 2.02
11. REFSLPNLLQYVRMPLLTPRYITD [E3F] :: 1.95
12. REESLPNLLQYVRMPLLTPPYITD [R20P] :: 2.21
13. REESLPNWLQYVRMPLLTPRYITD [L8W] :: 2.12
14. REESLVNLLQYVRMPLLTPRYITD [P6V] :: 1.6
15. REESLPNLQQYVRMPLLTPRYITD [L9Q] :: 3.77
16. AEESLPNLLQYVRMPLLTPRYITD [R1A] :: 2.23
17. REESLPNLEQYVRMPLLTPRYITD [L9E] :: 3.23
18. REESLPKLLQYVRMPLLTPRYITD [N7K] :: 2.73
19. REESLPNLLQYVRMELLTPRYITD [P15E] :: 2.54
20. REEVLPNLLQYVRMPLLTPRYITD [S4V] :: 1.82
21. REESLPNLLQYVRMPLLTPRYWTD [I22W] :: 1.93
22. REESLPNLLQYVRMPLLTPRYDTD [I22D] :: 3.27
23. REESLPNLLQYVRGPLLTPRYITD [M14G] :: 3.11
24. REESLPNLLQYVRMPLLTPRVITD [Y21V] :: 2.72
25. RMESLPNLLQYVRMPLLTPRYITD [E2M] :: 2.4
26. REESLPNLLQYVRMPLLTPRYICD [T23C] :: 2.03
27. REESLPNLLQYHRMPLLTPRYITD [V12H] :: 2.74
28. REESLPNLLKYVRMPLLTPRYITD [Q10K] :: 2.38
29. REESLPNLLWYVRMPLLTPRYITD [Q10W] :: 1.17
30. REESLPNLLQYVRMPKLTPRYITD [L16K] :: 2.93
31. REESLTNLLQYVRMPLLTPRYITD [P6T] :: 2.13
32. REESLPNLLQYVRMPLTTPRYITD [L17T] :: 2.54
33. REESLPNLLQYVRMPLLTPRYIAD [T23A] :: 2.9
34. REESLPNLDQYVRMPLLTPRYITD [L9D] :: 3.1
35. RLESLPNLLQYVRMPLLTPRYITD [E2L] :: 2.47
36. REESLPNLLQYVRMPLLTIRYITD [P19I] :: 2.12
37. REESLPNLLQYVRMPLLTPRYISD [T23S] :: 2.66
38. REESLPNLLQYVTMPLLTPRYITD [R13T] :: 1.64
39. REESLPNLLQYVRMPLLTPRYIED [T23E] :: 2.81
40. REESYPNLLQYVRMPLLTPRYITD [L5Y] :: 2.61

Recorded values, source the supplement of paper PMC10567573.
